Target: recombinant N-terminal GST-tagged human Rho kinase 2 (ROCK2, amino acids 1-552) (Homo sapiens, UniProt O75116)
Construct: ROCK2, amino acids 1-552; purchased Invitrogen Inc. PV3759
Sequence (O75116 1-552): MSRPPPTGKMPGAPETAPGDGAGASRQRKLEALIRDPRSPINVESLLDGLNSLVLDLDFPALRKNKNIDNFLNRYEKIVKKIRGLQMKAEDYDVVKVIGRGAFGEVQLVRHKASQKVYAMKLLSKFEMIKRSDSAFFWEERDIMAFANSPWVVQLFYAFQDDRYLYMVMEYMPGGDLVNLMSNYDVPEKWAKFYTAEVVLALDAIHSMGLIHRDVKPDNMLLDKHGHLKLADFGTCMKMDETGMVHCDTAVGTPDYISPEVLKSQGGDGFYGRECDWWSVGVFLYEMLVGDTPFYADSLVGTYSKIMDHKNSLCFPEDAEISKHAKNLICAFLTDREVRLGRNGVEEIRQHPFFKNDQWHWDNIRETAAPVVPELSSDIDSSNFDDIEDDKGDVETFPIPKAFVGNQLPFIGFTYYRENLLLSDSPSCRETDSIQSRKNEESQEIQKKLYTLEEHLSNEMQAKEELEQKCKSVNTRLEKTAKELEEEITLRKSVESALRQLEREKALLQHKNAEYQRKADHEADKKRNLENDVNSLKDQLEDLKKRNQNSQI
Assay: In vitro Rho kinase assay (luciferase-based ATP consumption), ROCK2
Type: biochemical
Settings: recombinant GST-tagged human ROCK2, luciferase-based ATP consumption; read-out: ROCK2 IC50
Reported IC50 values for the following compounds.

compound | IC50
Cc1c(-c2ccnc(N)n2)sc2ccc(CNC(=O)C3CCCN3C(=O)OC(C)(C)C)cc12 (stereo not shown) | > 5 µM
CCN(C)C(=O)c1ccc2sc(-c3ccnc(N)n3)c(C)c2c1 | < 5 µM
Cc1c(-c2ccnc(N)n2)sc2ccc(CNC(=O)c3ccccc3Cc3ccccc3)cc12 | < 5 µM
Cc1ccccc1CCC(=O)NCc1ccc2sc(-c3ccnc(N)n3)c(C)c2c1 | < 5 µM
Cc1c(-c2ccnc(N)n2)sc2ccc(CNC(=O)c3cc4ccccc4s3)cc12 | < 5 µM

Prompt: Determine its reported IC50: Cc1c(-c2ccnc(N)n2)sc2ccc(C(=O)N3CCN(c4ccccc4C#N)CC3)cc12
Completion: > 5 µM

Prompt: Determine its reported IC50: Cc1c(-c2ccnc(N)n2)sc2ccc(CNC(=O)c3cccc(Br)c3)cc12
Completion: < 5 µM

Prompt: Determine its reported IC50: COc1cc(NC(=O)c2sc3nc(-c4ccncc4)ccc3c2N)cc(OC)c1OC
Completion: < 5 µM

Prompt: Determine its reported IC50: Cc1c(-c2ccnc(N)n2)sc2ccc(CNC(=O)c3ccc(C=O)cc3)cc12
Completion: < 5 µM

Prompt: Determine its reported IC50: Cc1c(-c2ccnc(N)n2)sc2ccc(C(=O)NCc3ccc(N(C)C)cc3)cc12
Completion: > 5 µM

Prompt: Determine its reported IC50: Cc1c(-c2ccnc(N)n2)sc2ccc(CNC(=O)C(C(C)C)N(C)C(=O)OC(C)(C)C)cc12 (stereo not shown)
Completion: > 5 µM

Prompt: Determine its reported IC50: Cc1c(-c2ccnc(N)n2)sc2ccc(C(=O)N3CCN(c4ccc(C(C)(C)C)cc4)CC3)cc12
Completion: < 5 µM

Prompt: Determine its reported IC50: Cc1c(-c2ccnc(N)n2)sc2ccc(CNC(=O)C(C)c3ccc(-c4ccccc4)c(F)c3)cc12 (stereo not shown)
Completion: < 5 µM

====

Biological target: recombinant N-terminal GST-tagged human Rho kinase 1 (ROCK1, amino acids 1-535) (Homo sapiens, UniProt Q13464)
Construct: ROCK1, amino acids 1-535; purchased Invitrogen Inc. PV-3691
Sequence (Q13464 1-535): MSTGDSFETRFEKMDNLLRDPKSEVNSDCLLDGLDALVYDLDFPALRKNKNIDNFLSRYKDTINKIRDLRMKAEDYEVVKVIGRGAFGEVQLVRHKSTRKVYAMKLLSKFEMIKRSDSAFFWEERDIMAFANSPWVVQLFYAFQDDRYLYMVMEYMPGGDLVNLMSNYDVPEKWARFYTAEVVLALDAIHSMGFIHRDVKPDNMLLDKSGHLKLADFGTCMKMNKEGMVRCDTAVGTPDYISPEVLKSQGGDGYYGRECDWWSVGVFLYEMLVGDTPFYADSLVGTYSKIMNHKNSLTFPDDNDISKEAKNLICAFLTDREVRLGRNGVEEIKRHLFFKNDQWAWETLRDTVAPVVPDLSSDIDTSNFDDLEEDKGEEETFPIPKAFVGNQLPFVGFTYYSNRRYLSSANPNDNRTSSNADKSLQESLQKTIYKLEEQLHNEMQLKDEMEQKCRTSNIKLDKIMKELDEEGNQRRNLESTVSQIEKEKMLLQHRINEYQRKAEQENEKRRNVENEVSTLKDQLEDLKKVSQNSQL
Experiment: In vitro Rho kinase assay (luciferase-based ATP consumption), ROCK1
Format: biochemical
Conditions: recombinant GST-tagged human ROCK1, luciferase-based ATP consumption; read-out: ROCK1 IC50
measure-name: IC50

Below are worked cases with known answers.
smiles-str | IC50
COc1cncc(Nc2ccc3sc(-c4ccnc(N)n4)c(C)c3c2)c1 | < 5 µM
Cc1c(-c2ccnc(N)n2)sc2ccc(CNC(=O)c3ccnc(Cl)c3)cc12 | < 5 µM
Cc1c(-c2ccnc(N)n2)sc2ccc(CNC(=O)c3cccc(O)c3O)cc12 | > 5 µM

Now examine the next entry.
Prompt: Determine its reported IC50: Cc1c(-c2ccnc(N)n2)sc2ccc(CNC(=O)Cc3ccccc3O)cc12
Completion: < 5 µM

====

Biological target: recombinant N-terminal GST-tagged human Rho kinase 2 (ROCK2, amino acids 1-552) (Homo sapiens)
Construct: ROCK2, amino acids 1-552; purchased Invitrogen Inc. PV3759
Test: In vitro Rho kinase assay (luciferase-based ATP consumption), ROCK2
Type: biochemical
Details: recombinant GST-tagged human ROCK2, luciferase-based ATP consumption; read-out: ROCK2 IC50
Reported IC50 values for the following compounds.

Prompt: Determine its reported IC50: Cc1c(-c2ccnc(N)n2)sc2ccc(CNC(=O)C=Cc3ccc(Cl)cc3)cc12
Completion: < 5 µM

Prompt: Determine its reported IC50: Cc1nc(Br)sc1C(=O)NCc1ccc2sc(-c3ccnc(N)n3)c(C)c2c1
Completion: < 5 µM

Prompt: Determine its reported IC50: Cc1c(-c2ccnc(N)n2)sc2ccc(C(=O)NC3CCCc4ccccc43)cc12 (stereo not drawn)
Completion: < 5 µM

Prompt: Determine its reported IC50: Cc1c(-c2ccnc(N)n2)sc2ccc(C(=O)N3CCN(c4ccc([N+](=O)[O-])cc4)CC3)cc12
Completion: < 5 µM

Prompt: Determine its reported IC50: Cc1c(-c2ccnc(N)n2)sc2ccc(CNC(=O)c3ccccc3)cc12
Completion: > 5 µM
